target: Rho-associated protein kinase 2 (Homo sapiens); further: in the data inactive means no Kd found up to 30 µM
Sequence (O75116 whole entry): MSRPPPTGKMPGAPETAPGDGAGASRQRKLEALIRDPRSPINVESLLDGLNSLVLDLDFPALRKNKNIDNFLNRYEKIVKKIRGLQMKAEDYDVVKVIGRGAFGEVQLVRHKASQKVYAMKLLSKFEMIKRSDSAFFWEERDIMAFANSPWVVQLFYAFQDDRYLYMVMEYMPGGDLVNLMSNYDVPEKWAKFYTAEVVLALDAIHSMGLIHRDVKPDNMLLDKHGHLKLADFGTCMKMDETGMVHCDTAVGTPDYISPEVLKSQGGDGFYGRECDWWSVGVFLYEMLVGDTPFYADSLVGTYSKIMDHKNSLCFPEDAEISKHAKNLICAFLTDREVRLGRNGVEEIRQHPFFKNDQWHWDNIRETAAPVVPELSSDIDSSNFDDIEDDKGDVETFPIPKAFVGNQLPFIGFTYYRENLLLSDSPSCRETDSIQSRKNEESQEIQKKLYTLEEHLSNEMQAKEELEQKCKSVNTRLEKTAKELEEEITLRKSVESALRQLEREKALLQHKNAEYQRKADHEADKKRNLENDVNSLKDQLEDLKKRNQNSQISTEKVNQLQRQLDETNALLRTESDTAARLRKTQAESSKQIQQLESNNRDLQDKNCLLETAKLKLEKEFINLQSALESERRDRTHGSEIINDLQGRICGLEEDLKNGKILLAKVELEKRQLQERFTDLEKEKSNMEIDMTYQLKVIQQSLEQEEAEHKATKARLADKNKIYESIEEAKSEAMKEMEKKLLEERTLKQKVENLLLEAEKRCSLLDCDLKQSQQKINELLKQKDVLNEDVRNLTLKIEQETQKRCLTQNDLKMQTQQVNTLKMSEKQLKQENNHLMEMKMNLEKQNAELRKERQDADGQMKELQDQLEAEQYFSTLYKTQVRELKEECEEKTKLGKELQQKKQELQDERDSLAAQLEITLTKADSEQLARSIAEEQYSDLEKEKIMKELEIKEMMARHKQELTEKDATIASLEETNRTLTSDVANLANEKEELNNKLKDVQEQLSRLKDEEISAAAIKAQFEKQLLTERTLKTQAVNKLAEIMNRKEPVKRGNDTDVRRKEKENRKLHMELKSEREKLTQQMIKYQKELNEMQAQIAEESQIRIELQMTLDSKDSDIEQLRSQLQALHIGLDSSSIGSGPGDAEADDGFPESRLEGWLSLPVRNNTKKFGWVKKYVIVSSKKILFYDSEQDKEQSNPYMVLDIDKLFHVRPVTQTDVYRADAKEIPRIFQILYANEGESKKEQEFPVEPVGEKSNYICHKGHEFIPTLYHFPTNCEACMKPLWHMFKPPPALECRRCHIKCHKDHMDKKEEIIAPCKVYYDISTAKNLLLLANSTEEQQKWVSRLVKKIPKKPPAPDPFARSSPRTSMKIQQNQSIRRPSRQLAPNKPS
The source made the active and inactive calls.
Respond only with the outcome that fits, drawn from active, inactive

INSERT INTO measurements (item_smiles, group_label) VALUES
  ('C[C@@H](Oc1cc(C(=O)Nc2ccc(C(=O)N3CCN(C)CC3)cc2)nnc1N)c1c(Cl)ccc(F)c1Cl', 'inactive'),
  ('CCn1cc(-c2ccnc3[nH]c(-c4cccc(CN(C)C)c4)cc23)c(-c2ccc(NC(=O)N(C)C)cc2)n1', 'active'),
  ('NC(=O)Nc1cc(-c2cccc(F)c2)sc1C(=O)N[C@H]1CCCNC1', 'inactive');

Data request: What outcome does the record of this test show for COc1cc2c(Nc3ccc(Cl)c(Cl)c3F)ncnc2cc1OC[C@@H]1C[C@@H]2CN(C)C[C@@H]2C1 ?
Data returned: inactive

Data request: What outcome does the record of this test show for COc1ncc(-c2ccc3nccc(-c4ccnnc4)c3c2)cc1NS(=O)(=O)c1ccc(F)cc1F ?
Data returned: inactive

Data request: What outcome does the record of this test show for Cn1cc(-c2cnc3ccc4ccc(CS(=O)(=O)NCc5ccccn5)cc4c(=O)c3c2)cn1 ?
Data returned: inactive

Data request: What outcome does the record of this test show for CC(C)c1cc(CNc2nc(Nc3cc(C4CC4)[nH]n3)cc(N3CCN(C)CC3)n2)on1 ?
Data returned: inactive

Data request: What outcome does the record of this test show for Cc1cc(Nc2ncc(Cl)c(Nc3ccccc3S(=O)(=O)C(C)C)n2)c(OC(C)C)cc1C1CCNCC1 ?
Data returned: inactive

====

biological target: Bone morphogenetic protein receptor type-1B (Homo sapiens, UniProt O00238); further: in the data inactive means no Kd found up to 30 µM
Sequence (O00238 whole entry): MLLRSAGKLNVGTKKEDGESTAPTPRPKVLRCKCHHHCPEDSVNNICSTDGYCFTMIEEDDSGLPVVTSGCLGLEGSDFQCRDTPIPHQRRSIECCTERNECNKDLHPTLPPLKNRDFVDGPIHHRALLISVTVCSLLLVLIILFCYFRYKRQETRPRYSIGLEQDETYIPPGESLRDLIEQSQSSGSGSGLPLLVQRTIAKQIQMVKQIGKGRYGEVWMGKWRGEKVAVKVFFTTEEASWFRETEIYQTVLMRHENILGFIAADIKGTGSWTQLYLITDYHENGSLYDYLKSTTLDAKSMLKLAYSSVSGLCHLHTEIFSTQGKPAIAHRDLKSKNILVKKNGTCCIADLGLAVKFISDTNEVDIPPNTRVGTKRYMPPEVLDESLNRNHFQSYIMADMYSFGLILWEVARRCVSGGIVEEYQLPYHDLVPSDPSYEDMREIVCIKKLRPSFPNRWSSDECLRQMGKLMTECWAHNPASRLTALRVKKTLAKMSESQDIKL
The source made the active and inactive calls.
Respond only with the outcome that fits, drawn from yes (active), no (inactive)

Check out these entries, answers already filled in.
INSERT INTO results (compound, group_label) VALUES
  ('COc1ccc(S(=O)(=O)N(C(C)=O)c2ccccc2/C=C/c2cc[n+]([O-])cc2)cc1', 'no'),
  ('C[C@H]1CNCCCN1S(=O)(=O)c1cccc2cncc(F)c12', 'no'),
  ('COc1cc(Nc2ncc3c(n2)-c2ccc(Cl)cc2C(c2c(F)cccc2OC)=NC3)ccc1C(=O)O', 'no');

Data request: What outcome does the record of this test show for CCn1c(C(=O)N(C2CC2)C2CC2)cc2c3c(ncn3C)c(Nc3cc(C)n(C)n3)nc21 ?
Data returned: no

Data request: What outcome does the record of this test show for CNC(=O)c1nn(C)c2c1C(C)(C)Cc1cnc(Nc3ccc(N4CCN(C)CC4)cc3)nc1-2 ?
Data returned: no

Data request: What outcome does the record of this test show for CC(=O)c1cnc2ccc(-c3cc(Cl)c(O)c(Cl)c3)nc2c1N[C@H]1CC[C@H](CN(C)C)CC1 ?
Data returned: yes

====

target: Calcium/calmodulin-dependent protein kinase kinase 2 (Homo sapiens, UniProt Q96RR4); further: in the data inactive means no Kd found up to 30 µM
Sequence (Q96RR4 whole entry): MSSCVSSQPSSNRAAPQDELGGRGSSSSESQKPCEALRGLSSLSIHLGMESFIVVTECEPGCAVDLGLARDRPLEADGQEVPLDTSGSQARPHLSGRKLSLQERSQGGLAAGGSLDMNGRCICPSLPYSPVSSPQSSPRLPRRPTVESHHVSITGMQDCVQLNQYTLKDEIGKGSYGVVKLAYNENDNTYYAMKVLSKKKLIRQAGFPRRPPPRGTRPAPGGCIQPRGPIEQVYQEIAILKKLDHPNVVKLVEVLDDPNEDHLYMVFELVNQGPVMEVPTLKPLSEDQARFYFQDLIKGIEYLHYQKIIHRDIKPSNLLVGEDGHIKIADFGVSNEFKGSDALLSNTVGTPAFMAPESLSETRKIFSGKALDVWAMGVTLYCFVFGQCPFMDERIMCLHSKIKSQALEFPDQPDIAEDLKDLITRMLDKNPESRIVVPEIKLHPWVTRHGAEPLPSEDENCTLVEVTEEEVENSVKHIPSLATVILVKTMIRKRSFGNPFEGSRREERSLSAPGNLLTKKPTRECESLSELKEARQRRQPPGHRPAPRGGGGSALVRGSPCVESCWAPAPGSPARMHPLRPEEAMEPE
The source made the active and inactive calls.
Respond only with the outcome that fits, drawn from yes (1) (active), no (0) (inactive)

INSERT INTO assay_data (item_smiles, group_label) VALUES
  ('C[C@@H](Oc1cc(C(=O)Nc2ccc(C(=O)N3CCN(C)CC3)cc2)nnc1N)c1c(Cl)ccc(F)c1Cl', 'no (0)'),
  ('C#Cc1cccc(Nc2ncnc3cc(OC)c(OCCCCCCC(=O)NO)cc23)c1', 'no (0)'),
  ('Cc1nc(Nc2n[nH]c3c2CN(C(=O)N[C@H](CN(C)C)c2ccccc2)C3(C)C)c2sccc2n1', 'yes (1)');

Note: attention shifts to another entry.
Data request: What outcome does the record of this test show for O=C(Cc1ccc(-c2ccc(OCCN3CCOCC3)cc2)cn1)NCc1ccccc1 ?
Data returned: no (0)

Data provenance: ChEMBL document CHEMBL3991601
